- measured.target: Serine/threonine-protein kinase 33 (Homo sapiens)
- protocol.text: STK33 kinase inhibitors, dose response, biochemical, luminescence, cell-free, retest (AID 2821)
parameter.measured: EC50 (µM)
Numbers only, in µM.

Please review the entries below; each comes with its answer.
CCn1c(C)nc2cc(-c3nc4n(n3)Cc3ccccc3-4)ccc21: 11
CC(C)n1cnc2c(Nc3cccc(Cl)c3)nc(N(CCO)CCCO)nc21: 2.86
O=C(CCc1ccc(O)cc1)c1c(O)cc(O)cc1O: 21.4
COc1ccc(-c2onc3ccc(C(=O)/C=C/N(C)C)cc23)cc1: 5.29

Which EC50 is listed for Cc1cccc(-c2nc3ccccc3c3nncn23)c1 ?
22.5

* * *

So I've got a bunch of molecules here, and I need their EC50 values.
- measured.target: Serine/threonine-protein kinase 33 (Homo sapiens)
- protocol.text: STK33 kinase inhibitors, dose response, biochemical, luminescence, cell-free, retest (AID 2821)
Give bare numbers, in µM.

Guide cases for EC50, answers given:
COc1ccc(C2=CC3=C(Br)C(=O)C(C)(O)C(=O)C3=CO2)cc1 (stereo not given): 86
CC1CCN(C2=NC(=O)/C(=C/c3ccc(O)cc3)S2)CC1 [MLS001205076]: 10.4
Oc1ccc(/N=C/c2c(O)ccc3ccccc23)cc1: 2.84
O=C(O)c1cc(N=NCc2c(O)ccc3ccccc23)ccc1Cl [MLS001173801]: 32.3

Now look at this one.
Returns the measured EC50 for the input molecule. Input: COc1cc(C=Nn2c(S)nnc2-c2[nH]nc3c2CCC3)ccc1O
10.4

* * *

- measured.target: Serine/threonine-protein kinase 33 (Homo sapiens, UniProt Q9BYT3)
- Sequence (Q9BYT3 whole entry): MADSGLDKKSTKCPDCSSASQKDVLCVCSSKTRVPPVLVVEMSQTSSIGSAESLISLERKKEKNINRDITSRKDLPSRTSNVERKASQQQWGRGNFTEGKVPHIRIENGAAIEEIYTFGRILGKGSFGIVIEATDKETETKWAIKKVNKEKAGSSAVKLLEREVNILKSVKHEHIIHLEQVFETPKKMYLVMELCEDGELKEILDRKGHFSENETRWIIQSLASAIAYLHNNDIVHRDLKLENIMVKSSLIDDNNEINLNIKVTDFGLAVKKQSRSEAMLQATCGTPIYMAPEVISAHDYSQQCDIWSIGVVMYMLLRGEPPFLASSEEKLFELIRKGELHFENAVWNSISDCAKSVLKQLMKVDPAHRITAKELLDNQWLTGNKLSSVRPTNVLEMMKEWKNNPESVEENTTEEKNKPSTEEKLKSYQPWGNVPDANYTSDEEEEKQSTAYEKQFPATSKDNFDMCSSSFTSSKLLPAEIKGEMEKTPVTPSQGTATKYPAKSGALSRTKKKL
- protocol.text: STK33 kinase inhibitors, dose response, biochemical, luminescence, cell-free, retest (AID 2821)
Lab note: anything with EC50 below 8 µM is marked Met; values at 8 µM or higher are marked Not met.

These solved cases illustrate the format of a correct answer.
O=C(NCCCO)c1cc2c([nH]c3ccccc32)c(-c2ccccc2)n1 [MLS001214182]: Not met
COc1ccc2c(c1)C(=Cc1cnc[nH]1)C(=O)N2: Met
Oc1cc(O)cc(/C=C/c2ccc(O)cc2O)c1: Not met

Please indicate whether the reported EC50 of CN1CCCC1CCNc1ccc2oc3ccccc3c(=O)c2c1 (stereo unspecified) [MLS001249997] is strictly below 8 µM.
Not met

hey, is EC50 for O=C(Nc1nccs1)c1ccc(N2CCOCC2)c([N+](=O)[O-])c1 lower than 8 µM or not?
Not met

Please let me know if COc1cc(C2c3sc(=O)[nH]c3Sc3c2c(O)n(-c2ccc(C)cc2)c3O)ccc1O (stereo unspecified) [SMR000414898] shows EC50 below 8 µM.
Not met

* * *

- measured.target: Serine/threonine-protein kinase 33 (Homo sapiens, UniProt Q9BYT3)
- protocol.text: STK33 kinase inhibitors, dose response, biochemical, luminescence, cell-free, retest (AID 2821)
pEC50: −log10 of the molar value.
Assign MET whenever pEC50 does not fall below 5; assign NOT MET whenever it does.

// below: answered compounds
CN1CCN(c2nc(-c3ccccc3O)nc3ccccc23)CC1: NOT MET
CCN1CCN(c2cc(C)c3cc(NC(=O)c4ccc(Br)o4)ccc3n2)CC1: NOT MET
O=S(=O)(O)c1cccc(N=Nc2c(O)ccc3ccccc23)c1: MET
CCOc1ccccc1C(=O)Nc1cc(Cl)ccc1O: MET
COc1ccc(C(=O)ON=C(C)c2cccs2)cc1: NOT MET
Fc1ccc(-c2c[nH]cn2)cc1: NOT MET
Oc1ccc(Nc2nc(-c3ccccc3O)nc3ccccc23)cc1: MET
N#C/C(=C\c1ccc(O)c(O)c1)C(=O)c1ccc(O)c(O)c1: NOT MET
COc1ccccc1Nc1oc2cc(=O)ccc-2cc1C(N)=O: NOT MET
CNC(=O)c1cnc2ccc(S(=O)(=O)Nc3ccccc3F)cc2c1O: NOT MET

Does Oc1ccccc1-c1nc(NCCN2CCOCC2)c2ccccc2n1 have a reported pEC50 of at least 5?
NOT MET

Threshold query (pEC50 >= 5) on O=C(Nc1cc(C(=O)Nc2ccccc2C(=O)O)cc(C(=O)Nc2ccccc2C(=O)O)c1)c1ccccc1
NOT MET

Please check the record O=C(O)Cn1cc(C=c2sc3nc4ccccc4n3c2=O)c2ccccc21 and state if its pEC50 is at or above 5.
NOT MET

For this compound, is measured pEC50 5 or higher? CN1CCc2c(sc3c2c(=O)n(-c2ccccc2)c2n[nH]c(=S)n32)C1
NOT MET

# check: pEC50 of Cc1c(/C=C/C(=O)c2ccc(O)cc2)cnn1C is greater than or equal to 5
NOT MET

Test whether the compound CCOc1ccc(-c2ccc(SC)nn2)cc1 records pEC50 of 5 or higher.
NOT MET

# bool: pEC50 of Oc1ccc(CN=Nc2ccnc3cc(Cl)ccc23)cc1O >= 5
MET

Check this compound for pEC50 at or above 5: CNC(=S)Nc1cccc(-c2cnc3ccccc3n2)c1
NOT MET

Reported pEC50 reaches at least 5 for COc1cc(CN=Nc2ccc(C(F)(F)F)cn2)ccc1O ?
NOT MET

# bool: pEC50 of c1coc(C2Nc3ccccc3-c3nc4ccccc4n32)c1 (configuration not stated) >= 5
NOT MET

* * *

- measured.target: Serine/threonine-protein kinase 33 (Homo sapiens)
- protocol.text: STK33 kinase inhibitors, dose response, biochemical, luminescence, cell-free, retest (AID 2821)
parameter.measured: pEC50
One number for each entry, as −log10 of the molar value.

Example compounds with recorded pEC50:
O=C1Nc2ccccc2C1=Cc1cnc[nH]1: 5.10
CCC(Sc1ccc2nnc(-c3ccc(OC)c(OC)c3)n2n1)C(=O)O (configuration not stated): 4.88
CN(C)c1cc2c(c(N(C)C)c1)C(=O)c1ccccc1C2=O: 4.62
CC(=O)N(C)c1ccc(N=Cc2c(O)ccc3ccccc23)cc1: 5.42

# batch size: 8; output pEC50 per entry
1. CCCCCCCCCCCCCCCC[N+](C)(C)CCN(Cc1ccc(OC)cc1)c1ncccn1
2. O=C1NC(=O)/C(=C\c2ccc(O)cc2O)S1
3. c1cncc(Nc2nc(-c3cccnc3)cs2)c1
4. Oc1ccc(C=NNC(=S)NN=Cc2ccc(O)cc2)cc1
5. N#CC(C(=O)c1ccco1)c1nc2ccccc2[nH]1 (configuration not stated)
6. COc1cc(C=CC(=O)CC(=O)C=Cc2ccc(O)c(OC)c2)ccc1O
7. Cc1cc(N2C(=O)c3ccc(C(=O)Nc4ccc(O)cc4C(=O)O)cc3C2=O)no1
8. Cc1cccc(N2CCN(CCCNC(=O)c3ccc(NC(=O)C4=CSCCO4)cc3)CC2C)c1 (configuration not stated)

1: 4.45; 2: 5.06; 3: 4.57; 4: 4.39; 5: 5.07; 6: 6.15; 7: 4.62; 8: 5.10

Please go through the list and note pEC50 for each compound.
1. NC(=O)c1sc2nc(-c3ccco3)ccc2c1N
2. O=c1c2ccccc2sc2ccc(NCCCN3CCOCC3)cc12
3. COc1c(O)cc2oc(-c3ccc(O)c(O)c3)cc(=O)c2c1O
4. COC(=O)c1ccc(COc2ccccc2/C=C/C(=O)c2ccc(OCC(=O)O)cc2)cc1
5. CCCn1c(NC(=O)c2cccc(S(=O)(=O)N3CCCC3)c2)nc2ccccc21
6. Nc1cc(C(=O)O)c(N)c2c1C(=O)c1ccccc1C2=O
7. O=C1C=CC(=CCc2ccnc3ccccc23)C=C1

1. 4.59
2. 4.77
3. 4.96
4. 5.73
5. 6.11
6. 5.45
7. 4.94

* * *

For each of the compounds below, state its EC50.
- measured.target: Serine/threonine-protein kinase 33 (Homo sapiens)
- protocol.text: STK33 kinase inhibitors, dose response, biochemical, luminescence, cell-free, retest (AID 2821)

Take a look at these entries with their results.
C=CC(=O)Nc1ccc(CN2C(=O)N(c3c(Cl)c(OC)cc(OC)c3Cl)Cc3cnc(NCCCCN(CC)CC)nc32)cc1: 0.618 µM
COc1cc(N=CC2C(=O)Nc3ccccc32)cc(OC)c1OC (stereo not given): 4.93 µM
Nc1c(C(=O)O)ccc2c1C(=O)c1ccccc1C2=O: 22.2 µM
CC(C)N=C(S)Nc1ccc2c[nH]nc2c1 [SMR000261130]: > 120 µM
COc1ccc(N=CC2C(=O)Nc3ccccc32)cc1OC (stereo not given): 5.22 µM
CCn1c2ccc(C)cc2c2nc3cc(C(=O)O)ccc3nc21: 17.9 µM

Hey, can you go through the list below and give me EC50 for every item?
1. CCNc1nc(N)nc(-c2cc(Cl)ccc2O)n1
2. CCCCCCCCCCC[N+](C)(C)CC/C=C1/c2ccccc2Sc2ccc(Cl)cc21 [MLS001165405]
3. COC(=O)c1cccc2c1-c1ccccc1C2N=O (stereo not given)
4. COc1cc(C=CC(=O)CC(=O)C=Cc2ccc(O)cc2)ccc1O [demethoxycurcumin]

["5.04 µM", "> 120 µM", "11.8 µM", "1.75 µM"]
